System: Rhesus monkey
Assay: Inhibition of CGRP-induced vasodilation in rhesus monkey
Conditions: Macaca mulatta
Kindly state EC50 for each of the entries shown.
Numbers only here, please. The scale is µM.

Measured EC50 of `Cc1cc(C)c2c(c1)n(CC(=O)Nc1ccc3c(c1)C[C@]1(C3)C(=O)NC(=O)N1C)c(=O)n2C` : 10

Measured EC50 of `Cc1cc(C)c2c(c1)n(CC(=O)Nc1ccc3c(c1)C[C@]1(C3)C(=O)NC(=O)N1C)c(=O)n2CC(=O)N(C)C` : 0.3
